// pIC50 lookup, one value per entry
molecular target: Human immunodeficiency virus type 1 reverse transcriptase (Human immunodeficiency virus 1)
Quick note: pIC50 means taking -log10 of the concentration in moles per liter.

> print(dat)
                                   compound  endpoint.label  endpoint.result
1  CCc1c(Sc2cc(C)cc(C)c2)n(CCC2=CCCC2)c(=O)[nH]c1=O           pIC50             5.67

[in] Any idea what its pIC50 is? The compound is "Cc1cc(C)cc(C(=O)c2c(C)c(=O)[nH]c(=O)n2CC2CC=CC2)c1"
[out] 4.90

[in] Any idea what its pIC50 is? The compound is "Cc1cc(C)cc(C(=O)c2c(C(C)C)c(=O)[nH]c(=O)n2CCC2CCCC2)c1"
[out] 7.19

[in] Any idea what its pIC50 is? The compound is "CCc1c(C(=O)c2cc(C)cc(C)c2)n(CC2CCC2)c(=O)[nH]c1=O"
[out] 5.62

[in] Any idea what its pIC50 is? The compound is "CCc1c(Sc2cc(C)cc(C)c2)n(CCC2CCCC2)c(=O)[nH]c1=O"
[out] 5.66

[in] Any idea what its pIC50 is? The compound is CCc1c(Oc2cc(C)cc(C)c2)n(CCC2C=CCC2)c(=O)[nH]c1=O (stereo not given)
[out] 6.68

---

// selectivity ratio lookup, one value per entry
experiment: Therapeutic index, ratio of TC50 human HeLa cells expressing CD4-LTR to EC50 for HIV1 entry inhibition in human HeLa cells expressing CD4-LTR; assay type: cell-based; details: read-out: TI
The reply should be a number, written without any unit.

# annotated cases, reported selectivity ratio shown
> print(dat)
                                   compound  endpoint.result
1  Cc1cc(C)cc(C(=O)c2c(C(C)C)c(=O)[nH]c(=O)n2CC2=CCCC2)c1             2290
2  Cc1cc(C)cc(Oc2c(C(C)C)c(=O)[nH]c(=O)n2CC2=CCCC2)c1              116
3  CCc1c(C(=O)c2cc(C)cc(C)c2)n(CCC2C=CCC2)c(=O)[nH]c1=O (stereo not given)             1310
4  CCc1c(Oc2cc(C)cc(C)c2)n(CC2CCC2)c(=O)[nH]c1=O             3960

Next item in the queue.
[in] Any idea what its selectivity ratio is? The compound is "CCc1c(Oc2cc(C)cc(C)c2)n(Cc2ccccc2)c(=O)[nH]c1=O"
[out] 10200

---

assay: Cytotoxicity against human HeLa cells expressing CD4-LTR by XTT assay; format: cell-based; conditions: read-out: TC50 (the source's name)
Lab note: anything with CC50 below 30 µM is marked fulfilled; values at 30 µM or higher are marked not fulfilled.

> print(dat)
                                   compound  assigned.category
1  CCc1c(C(=O)c2cc(C)cc(C)c2)n(CCC2CC=CC2)c(=O)[nH]c1=O      not fulfilled
2  Cc1cc(C)cc(C(=O)c2c(C(C)C)c(=O)[nH]c(=O)n2CC2CCC2)c1      not fulfilled
3  CCc1c(Sc2cc(C)cc(C)c2)n(CC2CCCCC2)c(=O)[nH]c1=O      not fulfilled
4  CCc1c(Oc2cc(C)cc(C)c2)n(Cc2ccccc2)c(=O)[nH]c1=O      not fulfilled
5  CCc1c(C(=O)c2cc(C)cc(C)c2)n(CC2CCCC2)c(=O)[nH]c1=O      not fulfilled

[in] Please state whether CC50 is below 30 µM for "Cc1cc(C)cc(Oc2c(C(C)C)c(=O)[nH]c(=O)n2CC2CC2)c1"
[out] fulfilled

[in] Please state whether CC50 is below 30 µM for Cc1cc(C)cc(Oc2c(C(C)C)c(=O)[nH]c(=O)n2CCC2C=CCC2)c1 (stereo unspecified)
[out] fulfilled

[in] Please state whether CC50 is below 30 µM for "Cc1cc(C)cc(C(=O)c2c(C(C)C)c(=O)[nH]c(=O)n2Cc2ccccc2)c1"
[out] fulfilled

[in] Please state whether CC50 is below 30 µM for "CCc1c(Sc2cc(C)cc(C)c2)n(CCC2CCCC2)c(=O)[nH]c1=O"
[out] fulfilled

[in] Please state whether CC50 is below 30 µM for "CCc1c(Oc2cc(C)cc(C)c2)n(CCC2CC=CC2)c(=O)[nH]c1=O"
[out] not fulfilled

Just for reference, ChEMBL document CHEMBL1152465 is where these values come from.
